# credit: ChEMBL document CHEMBL1126317

assay: Ratio of the ID50's showing antitumor activity against HCT-8 and L1210 leukemia cell lines.; assay type: functional

smiles-input	Ratio
CCN(CC)CCN1Nc2c3cc(SC)ccc3nc3c([N+](=O)[O-])ccc1c23.CS(=O)(=O)O	0.32
CCN(CC)CCN1Nc2c3cc(OC(C)=O)ccc3nc3c([N+](=O)[O-])ccc1c23.CS(=O)(=O)O	1.4
CCNCCN1Nc2c3cc(OC)ccc3nc3c([N+](=O)[O-])ccc1c23.CS(=O)(=O)O	0.57
COc1ccc2c(c1)-c1nn(CCCN(C)C)c3ccc([N+](=O)[O-])c(c13)N2.CS(=O)(=O)O	0.33
CCN(CC)CCN1Nc2c3cc(OC(=O)C(C)(C)C)ccc3nc3c([N+](=O)[O-])ccc1c23.CS(=O)(=O)O	0.97
CN(C)CCCN1Nc2c3cc(O)ccc3nc3c([N+](=O)[O-])ccc1c23.CS(=O)(=O)O	6.7
CCN(CC)CCN1Nc2c3cc(O)ccc3nc3c([N+](=O)[O-])ccc1c23.CS(=O)(=O)O	6.5

---

test system: Mus musculus; test: In vivo antitumor activity of the compound(ip, 3.12 mg/kg for 5 days) against CD2F1 mice implanted intraperitoneally with P388 leukemia cells.; assay type: functional; details: route intraperitoneal

smiles-input	endpoint-unit	T/C
CC(=O)Oc1ccc2c(c1)-c1nn(CCN3CCCC3)c3ccc([N+](=O)[O-])c(c13)N2.CS(=O)(=O)O	%	236
CS(=O)(=O)O.O=[N+]([O-])c1ccc2c3c(nn2CCN2CCCC2)-c2cc(O)ccc2Nc13	%	250
CN(C)CCN1Nc2c3cc(OC(=O)C(C)(C)C)ccc3nc3c([N+](=O)[O-])ccc1c23.CS(=O)(=O)O	%	236
CN(C)CCN1Nc2c3cc(O)ccc3nc3c([N+](=O)[O-])ccc1c23.CS(=O)(=O)O	%	228
CC(=O)Oc1ccc2nc3c([N+](=O)[O-])ccc4c3c(c2c1)NN4CCN(C)C.CS(=O)(=O)O	%	265
CCN(CC)CCN1Nc2c3cc(OC(C)=O)ccc3nc3c([N+](=O)[O-])ccc1c23.CS(=O)(=O)O	%	283
CN(C)CCCN1Nc2c3cc(O)ccc3nc3c([N+](=O)[O-])ccc1c23.CS(=O)(=O)O	%	270
CC(=O)Oc1ccc2nc3c([N+](=O)[O-])ccc4c3c(c2c1)NN4CCCN(C)C.CS(=O)(=O)O	%	252
